Origin of measurements: ChEMBL document CHEMBL4257488

Species: Homo sapiens
Test: Selectivity ratio of Kb for human 5-HT2B receptor to Kb for human 5-HT2A receptor
endpoint: Selectivity ratio

- COc1cc2c3c(c1OC)-c1ccccc1C[C@@H]3N(C)CC2: 0.5
- COc1cc2c3c(c1OC)-c1ccccc1C[C@H]3N(C)CC2: 0.5
- CN1CCc2cc3c(c4c2[C@@H]1Cc1ccccc1-4)OCO3: 2
- CN1CCc2cc3c(c4c2[C@H]1Cc1ccccc1-4)OCO3: 8

----------
Molecular target: Alpha-1A adrenergic receptor (Homo sapiens) (UniProt P35348)
Sequence (P35348 whole entry): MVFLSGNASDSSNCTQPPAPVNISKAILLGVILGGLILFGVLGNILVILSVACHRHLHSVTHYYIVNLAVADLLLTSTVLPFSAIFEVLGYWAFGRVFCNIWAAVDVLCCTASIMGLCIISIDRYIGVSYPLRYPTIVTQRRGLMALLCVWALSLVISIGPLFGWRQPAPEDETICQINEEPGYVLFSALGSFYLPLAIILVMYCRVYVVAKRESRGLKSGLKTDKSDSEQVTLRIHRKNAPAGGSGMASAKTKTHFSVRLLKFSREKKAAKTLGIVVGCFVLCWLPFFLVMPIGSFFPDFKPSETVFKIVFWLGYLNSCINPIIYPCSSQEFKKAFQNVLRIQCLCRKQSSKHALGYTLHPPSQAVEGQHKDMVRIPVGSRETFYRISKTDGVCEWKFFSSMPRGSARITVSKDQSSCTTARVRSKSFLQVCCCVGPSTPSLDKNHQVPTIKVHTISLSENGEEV
Assay: Antagonist activity at human adrenergic alpha1A receptor expressed in HEK293 cells assessed as inhibition of noradrenaline-induced receptor activation preincubated for 15 mins followed by noradrenaline addition and measured after 1 hr by TGFalpha shedding assay
endpoint: pKb

• COc1cc2c3c(c1OC)-c1ccccc1C[C@H]3N(C)CC2 = 7.31 to 7.42
• CN1CCc2cc3c(c4c2[C@@H]1Cc1ccccc1-4)OCO3 = 6.62 to 7.07
• CN1CCc2cc3c(c4c2[C@H]1Cc1ccccc1-4)OCO3 = 6.38 to 6.47
• COc1cc2c3c(c1OC)-c1ccccc1C[C@@H]3N(C)CC2 = 6.91 to 7.17
